molecular target: Voltage-dependent L-type calcium channel subunit alpha-1C (Oryctolagus cuniculus, UniProt P15381); assay: Antagonist activity at rabbit CaV1.2alpha1C transfected in HEK293 cells by FLIPR assay
Sequence (P15381 whole entry): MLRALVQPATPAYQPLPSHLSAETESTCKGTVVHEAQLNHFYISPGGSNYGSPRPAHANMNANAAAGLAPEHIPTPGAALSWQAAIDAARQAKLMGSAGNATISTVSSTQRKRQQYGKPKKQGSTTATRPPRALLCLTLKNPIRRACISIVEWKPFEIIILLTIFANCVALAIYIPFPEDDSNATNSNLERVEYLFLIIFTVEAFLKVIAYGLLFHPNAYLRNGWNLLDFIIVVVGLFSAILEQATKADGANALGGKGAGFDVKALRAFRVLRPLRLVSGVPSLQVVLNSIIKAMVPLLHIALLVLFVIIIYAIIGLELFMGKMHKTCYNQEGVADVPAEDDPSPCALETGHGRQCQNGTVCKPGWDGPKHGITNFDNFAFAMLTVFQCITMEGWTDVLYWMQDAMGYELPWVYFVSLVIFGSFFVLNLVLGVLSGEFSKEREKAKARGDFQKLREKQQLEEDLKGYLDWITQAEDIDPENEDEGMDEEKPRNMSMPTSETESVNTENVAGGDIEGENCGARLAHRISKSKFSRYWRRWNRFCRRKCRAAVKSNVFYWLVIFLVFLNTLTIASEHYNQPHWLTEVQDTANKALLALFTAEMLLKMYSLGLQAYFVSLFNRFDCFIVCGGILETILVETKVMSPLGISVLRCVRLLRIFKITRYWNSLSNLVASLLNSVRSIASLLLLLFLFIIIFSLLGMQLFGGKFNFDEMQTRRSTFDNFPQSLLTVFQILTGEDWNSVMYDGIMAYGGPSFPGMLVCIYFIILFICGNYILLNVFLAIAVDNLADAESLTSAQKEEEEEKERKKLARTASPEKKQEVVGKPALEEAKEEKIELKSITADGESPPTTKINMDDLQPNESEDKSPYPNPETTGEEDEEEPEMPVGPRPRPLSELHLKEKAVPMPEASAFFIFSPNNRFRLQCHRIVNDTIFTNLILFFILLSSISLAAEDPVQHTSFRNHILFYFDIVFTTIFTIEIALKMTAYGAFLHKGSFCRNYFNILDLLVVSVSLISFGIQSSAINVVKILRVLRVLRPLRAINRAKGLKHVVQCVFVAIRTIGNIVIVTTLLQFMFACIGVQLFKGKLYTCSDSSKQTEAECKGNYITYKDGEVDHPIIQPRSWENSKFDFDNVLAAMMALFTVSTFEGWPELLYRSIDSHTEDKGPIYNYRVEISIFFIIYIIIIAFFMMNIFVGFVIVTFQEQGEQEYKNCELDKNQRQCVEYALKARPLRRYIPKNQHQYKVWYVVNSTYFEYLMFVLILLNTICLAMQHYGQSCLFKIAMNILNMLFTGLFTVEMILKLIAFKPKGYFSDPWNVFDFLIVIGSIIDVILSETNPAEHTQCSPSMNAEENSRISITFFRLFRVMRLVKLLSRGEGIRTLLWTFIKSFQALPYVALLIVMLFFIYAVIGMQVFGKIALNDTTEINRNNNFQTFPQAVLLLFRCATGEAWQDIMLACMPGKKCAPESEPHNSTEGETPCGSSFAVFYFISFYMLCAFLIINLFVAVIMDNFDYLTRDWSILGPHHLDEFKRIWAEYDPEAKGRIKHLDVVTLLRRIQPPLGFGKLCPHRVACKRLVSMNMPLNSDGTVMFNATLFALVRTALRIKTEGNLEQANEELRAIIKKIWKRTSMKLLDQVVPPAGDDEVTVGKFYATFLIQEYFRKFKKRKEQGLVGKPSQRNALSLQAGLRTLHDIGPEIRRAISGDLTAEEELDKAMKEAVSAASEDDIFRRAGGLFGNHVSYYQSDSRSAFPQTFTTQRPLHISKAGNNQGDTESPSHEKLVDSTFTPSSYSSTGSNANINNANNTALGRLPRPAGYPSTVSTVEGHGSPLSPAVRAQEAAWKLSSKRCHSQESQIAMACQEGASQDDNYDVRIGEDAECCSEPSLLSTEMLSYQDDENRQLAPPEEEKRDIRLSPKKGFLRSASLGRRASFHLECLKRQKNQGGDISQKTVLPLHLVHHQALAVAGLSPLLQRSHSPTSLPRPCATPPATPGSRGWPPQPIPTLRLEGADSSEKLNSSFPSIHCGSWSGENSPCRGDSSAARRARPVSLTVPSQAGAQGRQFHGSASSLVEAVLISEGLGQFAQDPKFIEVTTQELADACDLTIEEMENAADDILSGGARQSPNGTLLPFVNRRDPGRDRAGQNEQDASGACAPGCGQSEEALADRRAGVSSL
measure: pIC50
Hey, just a heads up that pIC50 is the negative log base 10 of the concentration in molar.

>  <compound>
C[C@H]1CCCC[C@H]1N1C(=O)CC(=O)N(CCc2cccc(Cl)c2)C1=O

>  <pIC50>
5.43

$$$$

Identify the reported pIC50 for the following entry. CCC(CC)N1C(=O)CC(=O)N(CCc2cccc(Cl)c2)C1=O
4.59

Consider the compound O=C1CC(=O)N([C@@H]2C[C@@H]3CC[C@H]2C3)C(=O)N1CCc1cccc(C(F)(F)F)c1 . State its measured pIC50.
4.12

Return pIC50 for the following compound: CC1CCC(N2C(=O)CC(=O)N(CCc3ccc(Cl)cc3)C2=O)CC1 (stereo not given)
4.52

Read the entry C[C@@H]1[C@@H](N2C(=O)CC(=O)N(CCc3ccc(Cl)cc3)C2=O)C[C@H]2C[C@@H]1C2(C)C and write its reported pIC50.
4.55

Given CC1(C)CCC[C@H]1N1C(=O)CC(=O)N(CCc2cccc(C(F)(F)F)c2)C1=O , respond with its pIC50.
5.51

Quote pIC50 reported for CC1(C)CCC(N2C(=O)CC(=O)N(CCc3ccc(Cl)cc3)C2=O)C1 (stereo not given) please.
4.59

Indicate the recorded pIC50 value for this compound: C[C@H](c1cccc2ccccc12)N1C(=O)CC(=O)N(CCc2cccc(Cl)c2)C1=O
5.00

* * *

biological target: Voltage-dependent L-type calcium channel subunit alpha-1D (Rattus norvegicus, UniProt P27732); assay: Antagonist activity at rat CaV1.3alpha1D transfected in HEK293 cells by FLIPR assay
Sequence (P27732 whole entry): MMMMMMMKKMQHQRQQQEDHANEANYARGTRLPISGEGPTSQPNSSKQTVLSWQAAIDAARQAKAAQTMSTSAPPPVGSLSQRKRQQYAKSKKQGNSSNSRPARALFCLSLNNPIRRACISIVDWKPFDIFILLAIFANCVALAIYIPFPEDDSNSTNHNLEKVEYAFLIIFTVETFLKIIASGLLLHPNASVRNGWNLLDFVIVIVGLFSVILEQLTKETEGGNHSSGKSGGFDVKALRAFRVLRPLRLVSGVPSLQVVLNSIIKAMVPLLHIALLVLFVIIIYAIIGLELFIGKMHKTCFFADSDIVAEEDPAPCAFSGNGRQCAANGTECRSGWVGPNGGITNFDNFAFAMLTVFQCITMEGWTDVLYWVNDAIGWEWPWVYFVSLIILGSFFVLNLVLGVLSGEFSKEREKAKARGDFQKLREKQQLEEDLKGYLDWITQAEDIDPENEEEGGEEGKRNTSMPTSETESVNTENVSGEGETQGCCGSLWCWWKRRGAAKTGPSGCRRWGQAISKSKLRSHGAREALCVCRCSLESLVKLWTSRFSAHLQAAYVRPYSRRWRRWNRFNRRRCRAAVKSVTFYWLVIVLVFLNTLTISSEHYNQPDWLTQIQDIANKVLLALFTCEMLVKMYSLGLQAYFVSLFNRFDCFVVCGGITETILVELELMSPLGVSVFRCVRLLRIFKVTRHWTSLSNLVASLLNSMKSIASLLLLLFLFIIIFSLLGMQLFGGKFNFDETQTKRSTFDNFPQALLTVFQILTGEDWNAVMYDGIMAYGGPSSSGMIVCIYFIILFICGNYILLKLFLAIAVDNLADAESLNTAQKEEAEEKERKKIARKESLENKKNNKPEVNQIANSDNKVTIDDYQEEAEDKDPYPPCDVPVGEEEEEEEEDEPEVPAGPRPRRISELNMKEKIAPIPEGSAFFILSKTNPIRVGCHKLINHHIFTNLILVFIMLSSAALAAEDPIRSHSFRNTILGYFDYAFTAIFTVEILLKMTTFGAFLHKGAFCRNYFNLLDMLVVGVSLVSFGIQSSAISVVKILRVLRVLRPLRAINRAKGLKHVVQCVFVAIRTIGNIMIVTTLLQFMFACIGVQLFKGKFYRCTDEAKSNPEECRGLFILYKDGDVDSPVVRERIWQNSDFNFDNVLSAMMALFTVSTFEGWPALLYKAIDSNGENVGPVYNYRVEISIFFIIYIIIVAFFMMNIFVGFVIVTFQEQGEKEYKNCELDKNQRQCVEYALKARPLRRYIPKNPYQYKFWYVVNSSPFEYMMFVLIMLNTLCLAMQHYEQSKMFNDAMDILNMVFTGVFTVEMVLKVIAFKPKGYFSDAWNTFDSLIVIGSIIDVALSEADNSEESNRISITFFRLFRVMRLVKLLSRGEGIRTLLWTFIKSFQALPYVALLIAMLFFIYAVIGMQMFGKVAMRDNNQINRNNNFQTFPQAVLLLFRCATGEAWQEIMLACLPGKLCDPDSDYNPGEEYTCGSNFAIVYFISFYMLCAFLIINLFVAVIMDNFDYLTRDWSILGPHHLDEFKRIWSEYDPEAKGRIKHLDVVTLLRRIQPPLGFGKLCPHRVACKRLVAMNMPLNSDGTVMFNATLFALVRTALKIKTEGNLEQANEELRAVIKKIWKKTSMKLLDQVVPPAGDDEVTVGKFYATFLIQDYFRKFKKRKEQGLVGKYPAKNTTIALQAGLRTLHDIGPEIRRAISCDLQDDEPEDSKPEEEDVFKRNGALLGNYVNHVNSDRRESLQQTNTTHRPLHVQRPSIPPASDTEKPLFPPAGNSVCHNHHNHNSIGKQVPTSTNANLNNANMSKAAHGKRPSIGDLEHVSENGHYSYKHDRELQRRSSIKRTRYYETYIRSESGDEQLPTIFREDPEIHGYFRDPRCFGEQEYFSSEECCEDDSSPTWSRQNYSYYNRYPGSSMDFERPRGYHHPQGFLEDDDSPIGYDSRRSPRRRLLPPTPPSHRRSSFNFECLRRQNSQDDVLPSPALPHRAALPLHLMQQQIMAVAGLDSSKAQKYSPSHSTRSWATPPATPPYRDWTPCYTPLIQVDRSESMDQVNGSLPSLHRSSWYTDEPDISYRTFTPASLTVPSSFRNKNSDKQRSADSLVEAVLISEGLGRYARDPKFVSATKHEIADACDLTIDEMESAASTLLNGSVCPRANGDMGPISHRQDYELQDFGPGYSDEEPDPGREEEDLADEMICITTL
# pIC50 per entry
// pIC50: -log10(molar conc.)

>  <compound>
O=C1CC(=O)N(C2CC3CCC2C3)C(=O)N1CCc1cccc(C(F)(F)F)c1 (racemic)

>  <measured-result>
5.62

$$$$
>  <compound>
C[C@H](C1CCCCC1)N1C(=O)CC(=O)N(CCc2ccc(Cl)cc2)C1=O

>  <measured-result>
5.09

$$$$

Hello, please tell me recorded pIC50 for this one: COC(=O)[C@@H](Cc1ccccc1)N1C(=O)CC(=O)N(C2CCCC2)C1=O
4.26

Return reported pIC50. Input compound: C[C@@H](C1CCCCC1)N1C(=O)CC(=O)N(CCc2ccc(Cl)cc2)C1=O
5.08

Return pIC50 for the following compound: C[C@@H]1[C@@H](C)CC[C@@H]1N1C(=O)CC(=O)N(CCc2cccc(Cl)c2)C1=O
5.51

Give the measured pIC50 for CCC1CCC(N2C(=O)CC(=O)N(CCc3ccc(Cl)cc3)C2=O)C1 (racemic)
5.17

Fill in reported pIC50 for this entry: CC(Cc1ccc(Cl)cc1)N1C(=O)CC(=O)N(C2CC3CCC2C3)C1=O (racemic)
5.44

Answer with the recorded pIC50 of C[C@H]1CCCC[C@H]1N1C(=O)CC(=O)N(CCc2ccc(Cl)cc2)C1=O only.
5.21

# return recorded pIC50 for input CC(C)(CN1C(=O)CC(=O)N(C2CCCC2)C1=O)c1cccc(Cl)c1
5.62

Give the measured pIC50 for O=C1CC(=O)N([C@@H]2C[C@@H]3CC[C@H]2C3)C(=O)N1CCc1cccc(Cl)c1
5.70

Please indicate pIC50 recorded for CC(C)c1ccc(CCN2C(=O)CC(=O)N(C3CCCC3)C2=O)cc1
4.41

Kindly indicate its recorded pIC50. Item: C[C@H]1CCC[C@@H]1N1C(=O)CC(=O)N(CCc2ccc(Cl)cc2)C1=O (racemic)
5.15

Report pIC50 for C[C@H]1CCC[C@H]1N1C(=O)CC(=O)N(CCc2ccc(Cl)cc2)C1=O
5.55

Supply pIC50 value. Item: CC1CCC(N2C(=O)CC(=O)N(CCc3ccc(Cl)cc3)C2=O)C1 (centres undefined)
5.01

Please report pIC50 for the following compound: CC1(C)CCC[C@@H]1N1C(=O)CC(=O)N(CCc2ccc(Cl)cc2)C1=O
5.77

* * *

assay: Selectivity ratio of IC50 for rabbit CaV1.2alpha1C to IC50 for rat CaV1.3alpha1D
Classification field: enter fulfilled for Ratio IC50 values not below 5, not fulfilled for values below it.

Worked cases, answers included:
>  <compound>
C[C@H]1CCC[C@@H]1N1C(=O)CC(=O)N(CCc2cccc(Cl)c2)C1=O (racemic)

>  <assigned-label>
not fulfilled

$$$$
>  <compound>
O=C1CC(=O)N(C2CCCC2)C(=O)N1CCCc1ccccc1

>  <assigned-label>
not fulfilled

$$$$
>  <compound>
O=C1CC(=O)N([C@@H]2C[C@@H]3CC[C@H]2C3)C(=O)N1CCc1ccc(Cl)cc1

>  <assigned-label>
fulfilled

$$$$

Check this compound for Ratio IC50 at or above 5: C[C@H]1CCC[C@H]1N1C(=O)CC(=O)N(CCc2cccc(Cl)c2)C1=O
not fulfilled

Textbook exercise: given the entry C[C@@H]1CCC[C@@H]1N1C(=O)CC(=O)N(CCc2cccc(Cl)c2)C1=O , state whether its Ratio IC50 is greater than or equal to 5.
not fulfilled

* * *

biological target: Voltage-dependent L-type calcium channel subunit alpha-1C (Oryctolagus cuniculus, UniProt P15381); assay: Antagonist activity at rabbit CaV1.2alpha1C transfected in HEK293 cells by FLIPR assay
measure: IC50

Some entries whose results are on file:
>  <compound>
O=C1CC(=O)N(C2CCCC2)C(=O)N1CCc1ccc(OCc2ccccc2)cc1

>  <measure>
IC50

>  <measured-result>
18.7 µM

$$$$
>  <compound>
C[C@H](c1cccc2ccccc12)N1C(=O)CC(=O)N(C2CCCC2)C1=O

>  <measure>
IC50

>  <measured-result>
6.15 µM

$$$$
>  <compound>
CC1CCC(N2C(=O)CC(=O)N(CCc3cccc(Cl)c3)C2=O)C1 (centres undefined)

>  <measure>
IC50

>  <measured-result>
38 µM

$$$$
>  <compound>
C[C@@H]1[C@@H](N2C(=O)CC(=O)N(CCc3cccc(Cl)c3)C2=O)C[C@H]2C[C@@H]1C2(C)C

>  <measure>
IC50

>  <measured-result>
> 100 µM

$$$$
>  <compound>
CC(=O)O[C@@H]1CCC[C@@H]1N1C(=O)CC(=O)N(CCc2cccc(Cl)c2)C1=O

>  <measure>
IC50

>  <measured-result>
23.4 µM

$$$$

Give IC50 for CC(=O)OCC1(N2C(=O)CC(=O)N(CCc3cccc(Cl)c3)C2=O)CCCC1
29.1 µM

Give me measured IC50, please, for this compound: O=C1CC(=O)N(C2Cc3ccccc3C2)C(=O)N1C1CCCC1
16.4 µM

Quickly give me recorded IC50 for C[C@H]1CCC[C@@H]1N1C(=O)CC(=O)N(CCc2cccc(Cl)c2)C1=O (racemic)
21 µM

Query IC50 for CC(=O)O[C@H]1CCC[C@@H]1N1C(=O)CC(=O)N(CCc2cccc(Cl)c2)C1=O
48.1 µM

* * *

molecular target: Voltage-dependent L-type calcium channel subunit alpha-1D (Rattus norvegicus); assay: Antagonist activity at rat CaV1.3alpha1D transfected in HEK293 cells by FLIPR assay
pIC50: −log10 of the molar value.
Record MET whenever pIC50 is at 5 or higher; record NOT MET when lower.

Worked cases, answers included:
>  <compound>
O=C1CC(=O)N(C2CCCc3ccccc32)C(=O)N1C1CCCC1 (stereo not drawn)

>  <assigned-label>
NOT MET

$$$$
>  <compound>
O=C1CC(=O)N(C[C@H]2CCCO2)C(=O)N1CCc1cccc(Cl)c1

>  <assigned-label>
NOT MET

$$$$
>  <compound>
O=C1CC(=O)N(C2CCCC2)C(=O)N1CCc1ccc(Cl)c(Cl)c1

>  <assigned-label>
MET

$$$$
>  <compound>
CC1(C)CCC(N2C(=O)CC(=O)N(CCc3ccc(Cl)cc3)C2=O)C1 (stereo not drawn)

>  <assigned-label>
MET

$$$$
>  <compound>
CC1(C)[C@@H]2CC[C@H](CN3C(=O)CC(=O)N(CCc4cccc(Cl)c4)C3=O)[C@H]1C2

>  <assigned-label>
NOT MET

$$$$
>  <compound>
O=C1CC(=O)N(C2CCCC2)C(=O)N1CCc1cc(C(F)(F)F)cc(C(F)(F)F)c1

>  <assigned-label>
MET

$$$$
>  <compound>
CC(CN1C(=O)CC(=O)N(C2CC3CCC2C3)C1=O)c1cccc(Cl)c1 (mixture of isomers)

>  <assigned-label>
MET

$$$$
>  <compound>
CC(C)(CN1C(=O)CC(=O)N(C2CC3CCC2C3)C1=O)c1cccc(Cl)c1 (mixture of isomers)

>  <assigned-label>
MET

$$$$

Does the reported pIC50 for CC1CCC(N2C(=O)CC(=O)N(CCc3cccc(Cl)c3)C2=O)C1 (stereo not drawn) fall at or above the 5 mark?
MET

Would you say CC(CN1C(=O)CC(=O)N(C2CC3CCC2C3)C1=O)c1ccc(Cl)cc1 (racemic) shows pIC50 at minimum 5?
MET

Is pIC50 for C[C@H]1[C@H](N2C(=O)CC(=O)N(CCc3cccc(Cl)c3)C2=O)C[C@@H]2C[C@H]1C2(C)C at or above 5?
NOT MET

Given O=C1CC(=O)N(C2CC3CCC2C3)C(=O)N1CCc1ccc(Cl)cc1 (mixture of isomers) , state whether its pIC50 is at least 5.
MET

Textbook exercise: given the entry C[C@@H]1CCC[C@@H]1N1C(=O)CC(=O)N(CCc2ccc(Cl)cc2)C1=O , state whether its pIC50 is greater than or equal to 5.
MET

Check the entry O=C1CC(=O)N([C@H]2C[C@H]3CC[C@@H]2C3)C(=O)N1CCc1cccc(Cl)c1 : does pIC50 equal or exceed 5?
MET

Does pIC50 meet or surpass 5 for C[C@H]1[C@H](N2C(=O)CC(=O)N(CCc3ccc(Cl)cc3)C2=O)C[C@@H]2C[C@H]1C2(C)C ?
NOT MET

API: above_or_equal(metric=pIC50, cutoff=5) for item O=C1CC(=O)N(C2Cc3ccccc3C2)C(=O)N1C1CCCC1
NOT MET

State whether the measured pIC50 reaches 5, counting equality as reaching it, for C[C@H](c1cccc2ccccc12)N1C(=O)CC(=O)N(C2CCCC2)C1=O
MET

Reported pIC50 at or above 5? O=C1CC(=O)N([C@@H]2C[C@@H]3CC[C@H]2C3)C(=O)N1CCc1cccc(C(F)(F)F)c1
MET

Is it the case that O=C1CC(=O)N([C@H]2CCC[C@@H]2O)C(=O)N1CCc1cccc(Cl)c1 has pIC50 reaching or exceeding 5?
NOT MET

Threshold query (pIC50 >= 5) on O=C1CC(=O)N(C2CCCC2)C(=O)N1CC(c1ccccc1)c1ccccc1
MET

Hi, just wondering whether CC(CN1C(=O)CC(=O)N(C2CCCC2)C1=O)c1cccc(Cl)c1 (stereo not drawn) shows pIC50 of 5 or higher.
MET
